B1: TRIM55 (parent)
chain: YLPTRGGTTMASGGRFRCPSCRHE

Variants of: B1
protocol: protein stability index of a GFP-peptide fusion (GPS, HEK-293T) (PSI 1-6); higher = more stable;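 note: lentivirally expressed fusions sorted by FACS into six bins by GFP to DsRed ratio, PSI derived from sequencing read proportions per bin multiplied by bin number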
protocol conditions: c terminus: a fixed tail appended
Kindly supply the reported protein stability index values for the records listed here.
Answers are plain numbers.

Record excerpt, results attached:
[[record]]
alteration = "G6L"
data_value = 1.76

[[record]]
alteration = "G7W"
data_value = 1.5

[[record]]
alteration = "R17N"
data_value = 2.24


Would you mind giving protein stability index for every variant in the list below?
1. R22H
2. M10G
3. R5H
4. T4S
5. S12T
6. P19T

1. 2.4
2. 2.61
3. 1.32
4. 2.1
5. 1.49
6. 2.18

Would you mind giving protein stability index for every variant in the list below?
1. G14F
2. G7P

1: 2.04; 2: 2.91

Would you mind giving protein stability index for every variant in the list below?
1. E24Y
2. A11E

[2.55, 2]

Would you mind giving protein stability index for every variant in the list below?
1. F16N
2. Y1F
3. G6E
4. R17K

2.33
2.51
1.67
1.48

Would you mind giving protein stability index for every variant in the list below?
1. P3D
2. P19S
3. C18W
4. T4Q
5. P19M

[1.04, 2.49, 1.7, 1.7, 1.61]
